Source listed as patent US20220249633A1.

Molecular target: HLA-A*24 (human)
Test: UV-exchange ELISA, exchange yield grade
VALUE_KIND: peptide exchange yield

NYAFLHRTL [… (SEQ ID NO: 342)] ... 50 to 75%
KYGTLDVTF [… (SEQ ID NO: 275)] ... > 75%
KYLESSATF [… (SEQ ID NO: 254)] ... 50 to 75%

Lab note: next binder to report on.
*Q* Returns the measured peptide exchange yield for the input binder. Input: TYIDTRTVF [… (SEQ ID NO: 297)]
*A* > 75%
